- assay text: Evaluation of hygroscopicity (dynamic steam adsorption/desorption)
- Format: physicochemical
- condition label: 25° C., relative humidity 5 to 95%
Parameter: Weight change(%). Scope: all listed entries.
Provide the reading as a plain figure in %.

# input Any idea what its Weight change(%) is? The molecule is Br.C1=Cc2cccc(OC[C@H]3CNCCO3)c2C1 [Hydrobromide (α)]
# output 12.5

# input Could you do the same for C1=Cc2cccc(OC[C@H]3CNCCO3)c2C1.O=S(=O)(O)c1ccccc1 [Benzenesulfonate (β)] , please?
# output 1.2
